- SYSTEM_NAME: T1, fluorescently quenched α-gliadin hexapeptide analogue QXL520-PQPQLP-K(5-FAM)-NH2
- T1 chain: PQPQLP
OBSERVATION_TYPE: Fold Change in Activity of PQ Hydrolysis Relative to Wild Type Kumamolysin-As (fold)
Write the number in fold without appending the unit.

Ask | Requested read-out: Fold Change in Activity of PQ Hydrolysis Relative to Wild Type Kumamolysin-As. Entry: Kumamolisin-As D358N (protein) AAPTAYTPLDVAQAYQFPEGLDGQGQCIAIIELGGGYDEASLAQYFASLGVPAPQVVSVSVDGASNQPTGDPSGPDGEVELDIEVAGALAPGAKFAVYFAPNTDAGFLDAITTAIHDPTLKPSVVSISWGGPEDSWTSAAIAAMNRAFLDAAALGVTVLAAAGDSGSTNGEQDGLYHVDFPAASPYVLACGGTRLVASGGRIAQETVWNDGPDGGATGGGVSRIFPLPAWQEHANVPPSANPGASSGRGVPDLAGNADPATGYEVVIDGEATVIGGTSAVAPLFAALVARINQKLGKAVGYLNPTLYQLPADVFHDITEGNNDIANRAQIYQAGPGWDPCTGLGSPIGVRLLQALLPSASQPQPGSTENLYFQSGALEHHHHHH
Reply | 4

Ask | Note, next up: Kumamolisin-As N291D, D293A, D358N (protein) AAPTAYTPLDVAQAYQFPEGLDGQGQCIAIIELGGGYDEASLAQYFASLGVPAPQVVSVSVDGASNQPTGDPSGPDGEVELDIEVAGALAPGAKFAVYFAPDTAAGFLDAITTAIHDPTLKPSVVSISWGGPEDSWTSAAIAAMNRAFLDAAALGVTVLAAAGDSGSTNGEQDGLYHVDFPAASPYVLACGGTRLVASGGRIAQETVWNDGPDGGATGGGVSRIFPLPAWQEHANVPPSANPGASSGRGVPDLAGNADPATGYEVVIDGEATVIGGTSAVAPLFAALVARINQKLGKAVGYLNPTLYQLPADVFHDITEGNNDIANRAQIYQAGPGWDPCTGLGSPIGVRLLQALLPSASQPQPGSTENLYFQSGALEHHHHHH
Reply | 24

Values were extracted from patent US20190083585.
